Reference for the values: patent US20220089678A1

Molecular target: T1, phycoerythrin (PE)-conjugated BCMA (Recombinant Human TNFRSF17 protein, Fc/His-tagged, R-PE labeled); Creative … (human, UniProt Q02223 1-54, R-PE labeled)
T1 construct: Bought reagent; also called BCMA-PE; not shown: Fc/His tag of the bought reagent
T1 sequence: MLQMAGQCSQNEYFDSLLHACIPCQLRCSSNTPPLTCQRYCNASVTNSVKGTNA
Experiment: flow cytometry; CAR T cells stained with BCMA-PE, 3 days after electroporation
Experimental: CAR T cells obtained from the above-described process were tested for viability, CAR protein expression, BCMA binding, and cytotoxicity, i.e., the ability to kill BCMA+ myeloma (tumor) cells. Viability, CAR expression, and BCMA binding were determined by flow cytometry on a GUAVA® […]® 12HT Flow cytometer (EMD Millipore). To test viability, a sample of the CAR T cells was mixed with propidium iodide and run on the flow cytometer with electronic gating on fluorescence in the near infrared channel. […]
endpointLabel: BCMA Binding (relative to SEQ ID: 54)

>>> reportedvalue("CAR comprising scFv-Y32 (SEQ ID NO: 57) (other, CAR on mRNA-electroporated human CD8+ T cells; Only the scFv is identified; not shown: rest of the CAR (hinge, transmembrane, cytoplasmic domains) not specified for this construct) DIVLTQSPSSLSASVGDRATISCRASESVTILGSHLIHWYQQKPGQAPKLLIQLASNVQTGVPARFSGSGSGTDFTLTISSVEPEDVAVYYCLQSRTIPRTFGQGTKVEIKGSTSGSGKPGSGEGSTKGQIQLVQSGPELKKPGGSVKISCAASGYTFTDYSINWVRQAPGKGLEWVGWINTETREPAYAYDFRGRFTFSADTSKSTAYLQMNSLRAEDTAVYYCALDYSYAMDYWGQGTLVTVSS")
"124 relative to SEQ ID: 54 = 100"
>>> reportedvalue("CAR comprising scFv-Y34 (SEQ ID NO: 59) (other, CAR on mRNA-electroporated human CD8+ T cells; Only the scFv is identified; not shown: rest of the CAR (hinge, transmembrane, cytoplasmic domains) not specified for this construct) DIVLTQSPSSLSASVGDRATISCRASESVTILGSHLIHWYQQKPGQAPKLLIQLASNVQTGVPARFSGSGSGTDFTLTISSVEPEDVAVYYCLQSRTIPRTFGQGTKVEIKGSTSGSGKPGSGEGSTKGQIQLVESGAEVKKPGGSVKVSCKASGYTFTDYSINWVRQAPGKGLEWVGWINTETREPAYAYDFRGRFAISAETSKSTAYLQMNSLRAEDTAVYYCALDYSYAMDYWGQGTLVTVSS")
"79 relative to SEQ ID: 54 = 100"
>>> reportedvalue("CAR comprising scFv-Y33 (SEQ ID NO: 58) (other, CAR on mRNA-electroporated human CD8+ T cells; Only the scFv is identified; not shown: rest of the CAR (hinge, transmembrane, cytoplasmic domains) not specified for this construct) DIVLTQSPSSLSASVGDRATISCRASESVTILGSHLIHWYQQKPGQAPKLLIQLASNVQTGVPARFSGSGSGTDFTLTISSVEPEDVAVYYCLQSRTIPRTFGQGTKVEIKGSTSGSGKPGSGEGSTKGQIQLVESGAEVKKPGGSVKISCAASGYTFTDYSINWVKQAPGKGLEWVGWINTETREPAYAYDFRGRFTFSLDTSKSTAYLQMNSLRAEDTAVYYCALDYSYAMDYWGQGTLVTVSS")
"40 relative to SEQ ID: 54 = 100"
>>> reportedvalue("CAR comprising scFv-Yi1 (SEQ ID NO: 54) (other, CAR on mRNA-electroporated human CD8+ T cells; not shown: rest of the CAR (hinge, transmembrane, cytoplasmic domains) not specified for this construct) DIVLTQSPSSLSASVGDRATISCRASESVTILGSHLIHWYQQKPGQAPKLLIQLASNVQTGVPARFSGSGSGTDFTLTISSVEPDDVAVYYCLQSRTIPRTFGGGTKLEIKGSTSGSGKPGSGEGSTKGQIQLVQSGPELKKPGGSVKISCAASGYTFTDYSINWVKQAPGKGLEWVGWINTETREPAYAYDFRGRFTFSLDTSKSTAYLQMNSLRAEDTAVYYCALDYSYAMDYWGQGTLVTVSS")
"100 relative to SEQ ID: 54 = 100"
>>> reportedvalue("CAR comprising scFv-Y31 (SEQ ID NO: 56) (other, CAR on mRNA-electroporated human CD8+ T cells; Only the scFv is identified; not shown: rest of the CAR (hinge, transmembrane, cytoplasmic domains) not specified for this construct) DIVLTQSPSSLSASVGDRATISCRASESVTILGSHLIHWYQQKPGQAPKLLIQLASNVQTGVPARFSGSGSGTDFTLTISSVEPEDVAVYYCLQSRTIPRTFGQGTKVEIKGSTSGSGKPGSGEGSTKGQIQLVQSGPELKKPGGSVKISCAASGYTFTDYSINWVKQAPGKGLEWVGWINTETREPAYAYDFRGRFTFSADTSKSTAYLQMNSLRAEDTAVYYCALDYSYAMDYWGQGTLVTVSS")
"58 relative to SEQ ID: 54 = 100"
